Source: PubChem BioAssay AID449762

experiment: M. tuberculosis growth inhibition, HTS (AID 449762);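 note: bacterial growth assessed after seven days of incubation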; settings: M. tuberculosis H37Rv growth inhibition, 7H9 media; at 25 µM; active compounds read high
Out of some 330,000 compounds screened, about 1,900 (0.58%) were called active. About 4% were inconclusive and are not listed. A selection follows. Results with a measured potency or affinity are listed apart.
Quantity kind: inhibition (%)
Give just the numeric value; % need not be written.

The following molecules have reported results that may help.
Lookup: Form field: reported inhibition of O=S(=O)(NC1CC(NS(=O)(=O)OCC(Cl)(Cl)Cl)C2CCCCC12)OCC(Cl)(Cl)Cl (configuration not stated)
Found: 4.68

Lookup: So what's the measured inhibition for this one? `CCCc1ccc2oc(C(=O)N(C)Cc3ccn[nH]3)c(C)c2c1`
Found: 4.45

New cases:
Lookup: Need inhibition of CCN(C(=O)COC(=O)c1cc(-c2ccc3cc(OC)ccc3c2)nc2ccccc12)C1CCS(=O)(=O)C1 (configuration not stated) , thanks.
Found: 12.4

Lookup: // returns reported inhibition for input `COc1ccc(-c2nnc(SCC(=O)N3CCCC3)o2)cc1`
Found: -2.88

Lookup: Returns the measured inhibition for the input molecule. Input: `Cc1ccc(C2C(=O)c3ccccc3C2=O)cc1`
Found: 7.43

Lookup: inhibition lookup needed for `Cc1ccc(CN2CCN(/N=C\c3cccc([N+](=O)[O-])c3)CC2)cc1` , thanks.
Found: 55.9

Lookup: Name the recorded inhibition for `O=c1c2ccccc2nc(-c2ccc([N+](=O)[O-])cc2)n1O` .
Found: 30.3
